The values you see were collected from ChEMBL document CHEMBL2346543.

Observed IC50 for Leucine-rich repeat serine/threonine-protein kinase 2 (Homo sapiens, UniProt Q5S007), reported per entry below.
Property Measured: IC50 (nM)

# example entries with known answers
Compound: FC(F)(F)c1cccc(Sc2ccc3nnc(-c4cccc(Cl)c4)n3n2)c1
IC50 (nM): 265

Compound: c1cnc(Sc2ccc3nnc(-c4cncs4)n3n2)nc1
IC50 (nM): 117

[A] COC(=O)[C@H](C)Sc1ccc2nnc(-c3cccs3)n2n1
[B] FC(F)(F)c1cccc(Sc2ccc3nnc(-c4ccccn4)n3n2)c1
Ask: Lab notebook, comparison: A versus B , higher IC50 goes to which? Refer to your chosen item by its label in the answer.
Result: A
(A: 458 nM, B: 164 nM)

====

test: Kinetic solubility of the compound in isotonic buffer at pH 7.4; format: physicochemical; settings: read-out: Kinetic_solubility
Property Measured: solubility kinetic (µM)

[a] FC(F)(F)c1cccc(Sc2ccc3nnc(-c4cccs4)n3n2)c1
[b] FC(F)(F)c1cccc(Sc2ccc3ncc(-c4cccs4)n3n2)c1
Ask: Lab notebook, comparison: a versus b , higher solubility kinetic goes to which? Refer to your chosen item by its label in the answer.
Result: b

====

species: Homo sapiens; assay: Selectivity ratio of IC50 for wild type LRRK2 (unknown origin) to IC50 for LRRK2 G2019S mutant (unknown origin)
Property Measured: Ratio IC50

# example entries with known answers
Compound: COC(=O)C(C)Sc1ccc2ncc(-c3cccs3)n2n1 (centres undefined)
Ratio IC50: 7.6

Compound: CC(Sc1ccc2nnc(-c3cccs3)n2n1)C(N)=O (centres undefined)
Ratio IC50: 2

Compound: FC(F)(F)c1cccc(Sc2ccc3nnc(-c4cscn4)n3n2)c1
Ratio IC50: 4

Compound: FC(F)(F)c1cccc(Sc2ccc3nnc(-c4ccccc4Cl)n3n2)c1
Ratio IC50: 3.2

Compound: FC(F)(F)c1ccc(Sc2ccc3nnc(-c4ccccc4)n3n2)cc1
Ratio IC50: 3

[A] CCC(Sc1ccc2nnc(-c3cccs3)n2n1)C(=O)OC (centres undefined)
[B] FC(F)(F)c1cccc(Sc2ccc3nnc(C4CC4)n3n2)c1
Ask: Lab notebook, comparison: A versus B , higher Ratio IC50 goes to which? Refer to your chosen item by its label in the answer.
Result: B
(B: 3.2, A: 2)

[a] COC(=O)C(C)Sc1ccc2nnc(-c3cccs3)n2n1 (centres undefined)
[b] COc1cccc(Sc2ccc3nnc(-c4cncs4)n3n2)c1
[c] FC(F)(F)c1ccccc1Sc1ccc2nnc(-c3ccccc3)n2n1
[d] CC(C)(Sc1ccc2nnc(-c3cccs3)n2n1)C(N)=O
Ask: Put the compounds in ascending order of Ratio IC50. Provide the ranking by listing each label in its place in the requested order.
Result: d, c, a, b
(d: 0.8, c: 1.3, a: 2.7, b: 5.3)

[A] FC(F)(F)c1ccnc(Sc2ccc3nnc(-c4cncs4)n3n2)n1
[B] FC(F)(F)c1cccc(Sc2ccc3nnc(C4CCCC4)n3n2)c1
Ask: Lab notebook, comparison: A versus B , higher Ratio IC50 goes to which? Refer to your chosen item by its label in the answer.
Result: A

====

test system: P-gp; assay: Efflux ratio in P-gp (unknown origin) mediated drug transport; type: ADME; conditions: human, not told
Property Measured: efflux ratio
Please respond with just the number, no unit label.

Ask: State its efflux ratio on P-gp: COC(=O)C(C)Sc1ccc2nnc(-c3cccs3)n2n1 (stereo unspecified)
Result: 0.8
